- Test system: UACC-62 melanoma
- procedure_summary: NCI tumour cell line growth inhibition, 48 h; in the data active = GI50 below about 0.43 µM; inactive = the rest
Labels: y for active, n for inactive

INSERT INTO results (molecule, class_assignment) VALUES
  ('Cc1ccc(C2=NN(c3ccc(S(N)(=O)=O)cc3)C(c3cn(-c4ccccc4)nc3-c3ccccc3)C2)cc1 (configuration not stated)', 'n'),
  ('COc1cc(/C=C2\C[C@H]3[C@@H]4CC=C5C[C@@H](OC(C)=O)CC[C@]5(C)[C@H]4CC[C@]3(C)[C@H]2OC(C)=O)ccc1OCCN1CCCCC1', 'n'),
  ('Nc1ccccc1C#Cc1ccccc1C#Cc1cnccn1', 'n'),
  ('C/C(=C\c1ccn(-c2ccc(N)cc2F)n1)[C@@H]1C[C@@H]2O[C@]2(C)CCC[C@H](C)[C@H](O)[C@@H](C)C(=O)C(C)(C)[C@@H](O)CC(=O)O1', 'y'),
  ('Cc1ccc(NC(=O)c2cc3ccccc3cc2O)c(C)c1.Cc1ccc(NC(=O)c2cc3ccccc3cc2[O-])c(C)c1.[Ni+2]', 'n'),
  ('C=CCSSc1ncnc2c1ncn2C1OC(CO)C(O)C1O (configuration not stated)', 'n'),
  ('Cc1c(-c2nnc(-c3cc(Cl)c(Cl)cc3Cl)o2)nnn1-c1ccnc2c(C(F)(F)F)cccc12', 'n');
